# IC50 annotations
# target or system: MLK3 (Homo sapiens (Human))
# protocol notes: Evaluation of inhibitory activity of enzyme units, MLK3 ([γ-33P]-ATP filter assay)
# conditions: read-out: IC50(nM) MLK3
parameter measured: IC50

>>> value_observed("CCS(=O)(=O)N1CC[C@H](Nc2c(Br)cnc3[nH]c(-c4cc(C)n(-c5cccc(C(=O)NCCN6CCN(C)CC6)c5)c4C)nc23)C1")
"26 nM"
>>> value_observed("CCS(=O)(=O)N1CC[C@H](Nc2c(Br)cnc3[nH]c(-c4cc(C)n(-c5cccc(C(=O)O)c5)c4C)nc23)C1")
"53 nM"
>>> value_observed("Cc1cc(-c2nc3c(Nc4cccc(S(N)(=O)=O)c4)c(Br)cnc3[nH]2)c(C)n1-c1ccc2c(c1)OCO2")
"70 nM"
>>> value_observed("COCCOc1cccc(-n2c(C)cc(-c3nc4ncc(Br)c(Nc5cccc(S(N)(=O)=O)c5)c4[nH]3)c2C)c1")
"83 nM"
>>> value_observed("Cc1cc(-c2nc3c(Nc4cccc(S(N)(=O)=O)c4)c(Br)cnc3[nH]2)c(C)n1-c1ccc(N2CCOCC2)cc1")
"68 nM"
>>> value_observed("CCS(=O)(=O)N1CC[C@H](Nc2c(Br)cnc3nc(-c4cc(C)n(-c5cccc(NC(=O)CN(C)C)c5)c4C)[nH]c23)C1")
"14 nM"

---

# target or system: LRRK2 mutant (G2019S) (Homo sapiens (Human), UniProt Q5S007, G2019S)
# Sequence (Q5S007 whole entry G2019S, looked up): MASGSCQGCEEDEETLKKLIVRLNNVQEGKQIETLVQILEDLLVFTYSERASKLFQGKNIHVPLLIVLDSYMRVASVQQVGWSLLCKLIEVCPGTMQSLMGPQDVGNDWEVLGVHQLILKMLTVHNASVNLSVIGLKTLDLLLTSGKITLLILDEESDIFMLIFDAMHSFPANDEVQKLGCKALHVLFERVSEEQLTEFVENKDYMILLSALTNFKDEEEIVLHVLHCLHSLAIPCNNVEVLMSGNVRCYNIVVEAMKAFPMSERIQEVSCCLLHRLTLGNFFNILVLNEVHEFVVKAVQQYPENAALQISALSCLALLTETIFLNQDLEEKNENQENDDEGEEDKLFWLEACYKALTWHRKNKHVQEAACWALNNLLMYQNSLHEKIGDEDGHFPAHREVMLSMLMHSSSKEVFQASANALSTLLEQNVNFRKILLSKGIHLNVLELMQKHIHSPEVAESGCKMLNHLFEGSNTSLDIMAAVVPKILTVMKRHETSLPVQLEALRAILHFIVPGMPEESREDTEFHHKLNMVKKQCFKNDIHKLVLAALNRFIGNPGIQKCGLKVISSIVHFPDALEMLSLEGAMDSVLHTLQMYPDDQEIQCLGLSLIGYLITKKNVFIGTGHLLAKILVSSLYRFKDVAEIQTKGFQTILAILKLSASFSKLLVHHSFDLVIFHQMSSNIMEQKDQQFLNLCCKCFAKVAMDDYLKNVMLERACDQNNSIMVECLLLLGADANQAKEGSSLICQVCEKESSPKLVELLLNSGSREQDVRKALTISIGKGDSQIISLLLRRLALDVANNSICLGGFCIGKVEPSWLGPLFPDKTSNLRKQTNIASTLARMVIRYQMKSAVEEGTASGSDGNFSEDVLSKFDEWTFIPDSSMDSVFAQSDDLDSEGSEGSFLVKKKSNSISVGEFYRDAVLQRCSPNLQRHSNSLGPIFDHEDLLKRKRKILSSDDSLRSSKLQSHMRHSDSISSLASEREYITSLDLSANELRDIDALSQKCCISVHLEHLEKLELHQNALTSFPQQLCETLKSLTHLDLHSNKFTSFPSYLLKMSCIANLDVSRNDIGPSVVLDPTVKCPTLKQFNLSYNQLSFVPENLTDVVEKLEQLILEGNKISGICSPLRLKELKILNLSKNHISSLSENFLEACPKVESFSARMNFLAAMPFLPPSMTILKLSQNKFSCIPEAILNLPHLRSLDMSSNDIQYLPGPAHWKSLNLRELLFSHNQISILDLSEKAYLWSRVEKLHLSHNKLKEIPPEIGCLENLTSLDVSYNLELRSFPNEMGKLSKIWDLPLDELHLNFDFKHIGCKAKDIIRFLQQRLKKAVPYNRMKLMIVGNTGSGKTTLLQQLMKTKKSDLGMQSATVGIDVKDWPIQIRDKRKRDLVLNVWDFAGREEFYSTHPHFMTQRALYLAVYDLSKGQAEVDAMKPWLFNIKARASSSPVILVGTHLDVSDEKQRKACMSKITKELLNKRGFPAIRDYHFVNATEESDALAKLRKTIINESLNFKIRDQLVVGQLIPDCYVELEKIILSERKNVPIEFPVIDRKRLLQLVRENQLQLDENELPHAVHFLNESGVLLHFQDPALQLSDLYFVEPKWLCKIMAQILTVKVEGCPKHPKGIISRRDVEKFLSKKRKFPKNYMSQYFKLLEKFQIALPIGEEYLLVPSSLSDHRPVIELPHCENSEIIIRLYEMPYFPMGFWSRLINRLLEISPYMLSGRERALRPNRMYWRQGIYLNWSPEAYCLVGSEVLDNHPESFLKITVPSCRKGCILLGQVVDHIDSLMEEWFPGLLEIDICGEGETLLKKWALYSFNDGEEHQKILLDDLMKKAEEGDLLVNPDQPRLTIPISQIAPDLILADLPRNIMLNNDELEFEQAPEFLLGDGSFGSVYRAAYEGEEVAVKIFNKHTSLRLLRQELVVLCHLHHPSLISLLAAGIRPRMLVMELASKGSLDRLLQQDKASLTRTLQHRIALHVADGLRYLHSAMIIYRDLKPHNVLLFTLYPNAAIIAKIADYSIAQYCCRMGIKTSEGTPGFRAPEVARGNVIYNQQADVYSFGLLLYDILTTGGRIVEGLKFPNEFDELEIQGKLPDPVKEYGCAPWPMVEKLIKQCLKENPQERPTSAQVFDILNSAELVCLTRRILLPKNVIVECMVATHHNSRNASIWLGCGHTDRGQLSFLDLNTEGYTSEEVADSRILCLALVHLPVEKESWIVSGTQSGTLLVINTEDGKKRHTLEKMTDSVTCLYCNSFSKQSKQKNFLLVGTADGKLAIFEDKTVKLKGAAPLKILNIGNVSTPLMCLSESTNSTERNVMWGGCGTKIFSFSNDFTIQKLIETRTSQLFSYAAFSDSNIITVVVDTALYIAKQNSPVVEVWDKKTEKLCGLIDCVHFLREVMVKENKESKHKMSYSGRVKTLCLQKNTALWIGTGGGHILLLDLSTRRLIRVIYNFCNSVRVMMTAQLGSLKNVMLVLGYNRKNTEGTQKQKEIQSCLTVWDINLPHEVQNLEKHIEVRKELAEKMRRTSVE
# protocol notes: Evaluation of inhibitory activity against LRRK2 (affinity bead competition binding), G2019S mutant
# conditions: 500 nM; read-out: Residual active values (%) LRRK2(G2019S)
As shown below, each of these compounds has a reported remaining binding at 0.5 µM value.
parameter measured: remaining binding at 0.5 µM (%)

>>> value_observed("CCS(=O)(=O)N1CC[C@H](Nc2c(Br)cnc3[nH]c(-c4cc(C)n(-c5cccc(C(=O)O)c5)c4C)nc23)C1")
0.2
>>> value_observed("CCS(=O)(=O)N1CC[C@H](Nc2c(Br)cnc3[nH]c(-c4cc(C)n(-c5ccccc5)c4C)nc23)C1")
3.3
>>> value_observed("CCS(=O)(=O)N1CC[C@H](Nc2c(Br)cnc3nc(-c4cc(C)n(-c5cc(NC(=O)CN6CCN(C)CC6)ccc5C)c4C)[nH]c23)C1")
0.1
>>> value_observed("CCS(=O)(=O)N1CC[C@H](Nc2c(Br)cnc3nc(-c4cc(C)n(-c5cc(C(=O)NCCN(C)C)ccc5C)c4C)[nH]c23)C1")
25
>>> value_observed("CCS(=O)(=O)N1CC[C@H](Nc2c(Br)cnc3[nH]c(-c4cc(C)n(-c5ccc(C(=O)N6CCOCC6)cc5C)c4C)nc23)C1")
1
>>> value_observed("CCS(=O)(=O)N1CC[C@H](Nc2c(Br)cnc3nc(-c4cc(C)n(-c5cccc(OCCN6CCOCC6)c5)c4C)[nH]c23)C1")
0.9

---

# target or system: MLK3 (Homo sapiens (Human), UniProt Q16584)
# Sequence (Q16584 whole entry, looked up): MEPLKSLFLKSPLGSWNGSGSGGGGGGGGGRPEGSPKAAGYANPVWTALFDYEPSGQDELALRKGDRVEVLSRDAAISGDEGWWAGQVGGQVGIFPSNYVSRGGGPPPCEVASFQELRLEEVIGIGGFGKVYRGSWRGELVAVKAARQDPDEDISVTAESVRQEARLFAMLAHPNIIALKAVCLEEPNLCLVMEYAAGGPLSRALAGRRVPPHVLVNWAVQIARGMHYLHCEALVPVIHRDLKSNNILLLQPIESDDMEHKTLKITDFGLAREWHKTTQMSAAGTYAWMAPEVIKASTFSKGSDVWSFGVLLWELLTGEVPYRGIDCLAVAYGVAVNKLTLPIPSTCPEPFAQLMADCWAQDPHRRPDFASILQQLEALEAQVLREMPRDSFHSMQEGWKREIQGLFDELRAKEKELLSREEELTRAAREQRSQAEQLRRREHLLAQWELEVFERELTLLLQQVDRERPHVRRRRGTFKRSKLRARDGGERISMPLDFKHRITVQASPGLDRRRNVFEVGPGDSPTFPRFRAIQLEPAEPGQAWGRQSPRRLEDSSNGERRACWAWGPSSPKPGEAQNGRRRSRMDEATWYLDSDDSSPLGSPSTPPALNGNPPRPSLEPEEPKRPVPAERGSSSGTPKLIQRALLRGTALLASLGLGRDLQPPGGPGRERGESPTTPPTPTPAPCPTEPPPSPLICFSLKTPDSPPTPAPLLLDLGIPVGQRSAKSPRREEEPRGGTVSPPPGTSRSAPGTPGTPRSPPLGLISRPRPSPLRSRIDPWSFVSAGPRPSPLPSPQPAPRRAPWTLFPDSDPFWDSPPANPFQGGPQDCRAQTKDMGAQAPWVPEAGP
# protocol notes: Evaluation of inhibitory activity of enzyme units, MLK3 ([γ-33P]-ATP filter assay)
# conditions: read-out: IC50(nM) MLK3
parameter measured: IC50 (nM)

>>> value_observed("CCS(=O)(=O)N1CC[C@H](Nc2c(Br)cnc3[nH]c(-c4cc(C)n(-c5cccc(C(=O)N6CCOCC6)c5)c4C)nc23)C1")
6
>>> value_observed("CCNS(=O)(=O)c1cccc(-n2c(C)cc(-c3nc4ncc(Br)c(N[C@H]5CCN(S(=O)(=O)CC)C5)c4[nH]3)c2C)c1")
14
>>> value_observed("CCS(=O)(=O)N1CC[C@H](Nc2c(Br)cnc3nc(-c4cc(C)n(-c5ccc(NC(=O)CN6CCOCC6)cc5C)c4C)[nH]c23)C1")
7
>>> value_observed("CCS(=O)(=O)N1CC[C@H](Nc2c(Br)cnc3nc(-c4cc(C)n(-c5ccc(S(N)(=O)=O)cc5)c4C)[nH]c23)C1")
20
>>> value_observed("CCS(=O)(=O)N1CC[C@H](Nc2c(Br)cnc3nc(-c4cc(C)n(-c5cccc(NS(C)(=O)=O)c5)c4C)[nH]c23)C1")
7
>>> value_observed("Cc1cc(-c2nc3c(Nc4cccc(S(N)(=O)=O)c4)c(Br)cnc3[nH]2)c(C)n1-c1cc(S(N)(=O)=O)ccc1Cl")
46
>>> value_observed("Cc1cc(-c2nc3c(Nc4cccc(S(N)(=O)=O)c4)c(Br)cnc3[nH]2)c(C)n1-c1c(Cl)cccc1Cl")
19
>>> value_observed("CCS(=O)(=O)N1CC[C@H](Nc2c(Br)cnc3[nH]c(-c4cc(C)n(-c5ccc(C(=O)N6CCN(C)CC6)cc5C)c4C)nc23)C1")
20
>>> value_observed("CCS(=O)(=O)N1CC[C@H](Nc2c(Br)cnc3[nH]c(-c4cc(C)n(-c5ccc6c(c5)OCO6)c4C)nc23)C1")
15
>>> value_observed("CCS(=O)(=O)N1CC[C@H](Nc2c(Br)cnc3nc(-c4cc(C)n(-c5cc(NC(=O)CN6CCOCC6)ccc5C)c4C)[nH]c23)C1")
47
>>> value_observed("CCS(=O)(=O)N1CC[C@H](Nc2c(Br)cnc3[nH]c(-c4cc(C)n(-c5cccc(C(=O)NCN(C)C)c5)c4C)nc23)C1")
27
>>> value_observed("Cc1cc(-c2nc3ncc(Br)c(Nc4cccc(S(N)(=O)=O)c4)c3[nH]2)c(C)n1-c1ccccc1")
85
>>> value_observed("CCS(=O)(=O)N1CC[C@H](Nc2c(Br)cnc3nc(-c4cc(C)n(-c5cccc(S(=O)(=O)NC)c5)c4C)[nH]c23)C1")
13

---

# target or system: LRRK2 mutant (G2019S) (Homo sapiens (Human), UniProt Q5S007, G2019S)
# protocol notes: Evaluation of inhibitory activity against LRRK2 (affinity bead competition binding), G2019S mutant
# conditions: 100 nM; read-out: Residual active values (%) LRRK2(G2019S)
Listed next: entries and their corresponding remaining binding at 0.1 µM.
parameter measured: remaining binding at 0.1 µM

>>> value_observed("CCS(=O)(=O)N1CC[C@H](Nc2c(Br)cnc3[nH]c(-c4cc(C)n(-c5cccc(C(=O)O)c5)c4C)nc23)C1")
"1.4%"
>>> value_observed("CCS(=O)(=O)N1CC[C@H](Nc2c(Br)cnc3[nH]c(-c4cc(C)n(-c5cccc(N6CCOCC6)c5)c4C)nc23)C1")
"4%"
>>> value_observed("Cc1ccc(NC(=O)CN2CCOCC2)cc1-n1c(C)cc(-c2nc3ncc(Br)c(Nc4cccc(S(N)(=O)=O)c4)c3[nH]2)c1C")
"57%"
>>> value_observed("CCS(=O)(=O)N1CC[C@H](Nc2c(Br)cnc3nc(-c4cc(C)n(-c5cccc(OCCN6CCOCC6)c5)c4C)[nH]c23)C1")
"3.5%"
>>> value_observed("CCS(=O)(=O)N1CC[C@H](Nc2c(Br)cnc3[nH]c(-c4cc(C)n(-c5cccc(S(=O)(=O)N6CCOCC6)c5)c4C)nc23)C1")
"7.9%"
>>> value_observed("CCS(=O)(=O)N1CC[C@H](Nc2c(Cl)cnc3nc(-c4cc(C)n(-c5cccc(C(=O)N6CCOCC6)c5)c4C)[nH]c23)C1")
"6.3%"

---

# System: gastric cancer cell line Hs746T
# protocol notes: Cancer cell proliferation inhibitory activity evaluation 2 (CCK-8), Hs746T
# Type: cell-based
# conditions: Homo sapiens, 72 h, read-out: Cancer cell proliferation inhibitory activity Hs746T
parameter measured: inhibition at 10 µM

>>> value_observed("CCS(=O)(=O)N1CC[C@H](Nc2c(Br)cnc3nc(-c4cc(C)n(-c5ccc(C(=O)N6CCN(C)CC6)cc5)c4C)[nH]c23)C1")
"10 to 50%"
>>> value_observed("CCS(=O)(=O)N1CC[C@H](Nc2c(Br)cnc3nc(-c4cc(C)n(-c5cc(C(=O)N6CCOCC6)ccc5C)c4C)[nH]c23)C1")
"> 50%"
>>> value_observed("CCS(=O)(=O)N1CC[C@H](Nc2c(Br)cnc3nc(-c4cc(C)n(-c5cc(NC(=O)CN6CCOCC6)ccc5C)c4C)[nH]c23)C1")
"> 50%"

---

# target or system: MLK1 (Homo sapiens (Human), UniProt P80192)
# Sequence (P80192 whole entry, looked up): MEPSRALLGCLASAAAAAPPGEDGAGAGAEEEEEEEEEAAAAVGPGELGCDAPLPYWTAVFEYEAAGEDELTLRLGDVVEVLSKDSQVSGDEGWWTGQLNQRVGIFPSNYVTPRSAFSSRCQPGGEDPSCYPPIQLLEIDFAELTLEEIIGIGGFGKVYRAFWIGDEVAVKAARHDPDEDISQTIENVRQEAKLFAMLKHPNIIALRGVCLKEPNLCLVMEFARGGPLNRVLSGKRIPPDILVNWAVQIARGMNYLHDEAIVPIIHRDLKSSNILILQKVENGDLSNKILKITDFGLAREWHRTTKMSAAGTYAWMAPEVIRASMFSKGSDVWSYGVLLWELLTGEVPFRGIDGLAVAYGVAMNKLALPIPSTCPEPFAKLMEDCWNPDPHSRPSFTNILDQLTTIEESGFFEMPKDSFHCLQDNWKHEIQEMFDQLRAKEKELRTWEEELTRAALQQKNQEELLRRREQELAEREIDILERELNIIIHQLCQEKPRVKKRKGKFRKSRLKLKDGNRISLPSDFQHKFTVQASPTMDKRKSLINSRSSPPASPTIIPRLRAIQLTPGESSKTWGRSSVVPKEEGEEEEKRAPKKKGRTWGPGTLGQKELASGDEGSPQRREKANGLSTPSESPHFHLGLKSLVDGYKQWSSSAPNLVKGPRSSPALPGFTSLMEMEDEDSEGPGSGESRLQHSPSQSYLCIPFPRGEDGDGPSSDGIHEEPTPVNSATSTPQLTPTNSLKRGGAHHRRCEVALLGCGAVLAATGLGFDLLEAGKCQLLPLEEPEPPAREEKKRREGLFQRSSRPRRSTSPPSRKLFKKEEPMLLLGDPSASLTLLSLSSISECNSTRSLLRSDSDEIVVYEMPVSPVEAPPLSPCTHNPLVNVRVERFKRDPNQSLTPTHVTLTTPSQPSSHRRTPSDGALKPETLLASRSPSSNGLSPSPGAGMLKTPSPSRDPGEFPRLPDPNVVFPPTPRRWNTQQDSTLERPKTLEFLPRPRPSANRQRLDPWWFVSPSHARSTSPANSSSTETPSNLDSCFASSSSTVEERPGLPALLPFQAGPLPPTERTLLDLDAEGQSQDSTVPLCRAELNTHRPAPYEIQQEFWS
# protocol notes: Evaluation of inhibitory activity of enzyme units, MLK1 ([γ-33P]-ATP filter assay)
# Assay type: biochemical
Lab note: compare IC50 with 40 nM, writing rule met if less and rule not met if equal or more.

>>> qualitative_label("CCS(=O)(=O)N1CC[C@H](Nc2c(Br)cnc3[nH]c(-c4cc(C)n(-c5ccccc5)c4C)nc23)C1")
"rule not met"
>>> qualitative_label("CCS(=O)(=O)N1CC[C@H](Nc2c(Cl)cnc3nc(-c4cc(C)n(-c5ccc(OCCN6CCOCC6)cc5)c4C)[nH]c23)C1")
"rule not met"
>>> qualitative_label("CCS(=O)(=O)N1CC[C@H](Nc2c(Br)cnc3nc(-c4cc(C)n(-c5cc(NC(=O)CN(C)C)ccc5C)c4C)[nH]c23)C1")
"rule not met"
>>> qualitative_label("Cc1ccc(NC(=O)CN(C)C)cc1-n1c(C)cc(-c2nc3ncc(Br)c(Nc4cccc(S(N)(=O)=O)c4)c3[nH]2)c1C")
"rule not met"
>>> qualitative_label("CCS(=O)(=O)N1CC[C@H](Nc2c(Br)cnc3nc(-c4cc(C)n(-c5cccc(C(=O)N6CCN(C)CC6)c5C)c4C)[nH]c23)C1")
"rule met"
>>> qualitative_label("CCS(=O)(=O)N1CC[C@H](Nc2c(Br)cnc3nc(-c4cc(C)n(-c5cccc(S(N)(=O)=O)c5)c4C)[nH]c23)C1")
"rule met"
>>> qualitative_label("CCS(=O)(=O)N1CC[C@H](Nc2c(Br)cnc3nc(-c4cc(C)n(-c5cccc(NC(=O)CCN(C)C)c5C)c4C)[nH]c23)C1 [Example 86]")
"rule met"
>>> qualitative_label("CCS(=O)(=O)N1CC[C@H](Nc2c(Br)cnc3[nH]c(-c4cc(C)n(-c5ccc(C(=O)NCCN6CCOCC6)cc5)c4C)nc23)C1")
"rule met"
>>> qualitative_label("CCS(=O)(=O)N1CC[C@H](Nc2c(Br)cnc3nc(-c4cc(C)n(-c5ccc(NC(=O)CN6CCOCC6)cc5C)c4C)[nH]c23)C1")
"rule met"
>>> qualitative_label("CCS(=O)(=O)N1CC[C@H](Nc2ccnc3nc(-c4cc(C)n(-c5ccc(OCCN6CCOCC6)cc5)c4C)[nH]c23)C1")
"rule not met"
>>> qualitative_label("Cc1ccc(C(=O)N2CCN(C)CC2)cc1-n1c(C)cc(-c2nc3ncc(Br)c(Nc4cccc(S(N)(=O)=O)c4)c3[nH]2)c1C")
"rule met"
>>> qualitative_label("CCS(=O)(=O)N1CC[C@H](Nc2c(Br)cnc3nc(-c4cc(C)n(-c5ccc(S(N)(=O)=O)cc5)c4C)[nH]c23)C1")
"rule met"
>>> qualitative_label("COCCOc1ccc(Nc2c(Br)cnc3[nH]c(-c4cc(C)n(-c5ccc6c(c5)OCO6)c4C)nc23)cc1")
"rule not met"
>>> qualitative_label("Cc1cc(-c2nc3c(Nc4cccc(S(N)(=O)=O)c4)c(Br)cnc3[nH]2)c(C)n1-c1ccc(C(=O)N2CCOCC2)cc1")
"rule not met"
>>> qualitative_label("CCS(=O)(=O)N1CC[C@H](Nc2c(Br)cnc3nc(-c4cc(C)n(-c5ccc(NC(=O)CN6CCN(C)CC6)cc5C)c4C)[nH]c23)C1")
"rule met"
>>> qualitative_label("CCS(=O)(=O)N1CC[C@H](Nc2c(Br)cnc3nc(-c4cc(C)n(-c5cccc(NC(=O)CN(C)C)c5)c4C)[nH]c23)C1")
"rule met"
>>> qualitative_label("CCS(=O)(=O)N1CC[C@H](Nc2c(Cl)cnc3[nH]c(-c4cc(C)n(-c5cc(NS(C)(=O)=O)ccc5C)c4C)nc23)C1")
"rule not met"
>>> qualitative_label("CCS(=O)(=O)N1CC[C@H](Nc2c(Br)cnc3nc(-c4cc(C)n(-c5cc(C(=O)NCCN(C)C)ccc5C)c4C)[nH]c23)C1")
"rule met"
>>> qualitative_label("Cc1cc(-c2nc3c(Nc4ccc5c(c4)OCO5)c(Br)cnc3[nH]2)c(C)n1-c1cccc(S(N)(=O)=O)c1")
"rule not met"
>>> qualitative_label("CCS(=O)(=O)N1CC[C@H](Nc2c(Br)cnc3[nH]c(-c4cc(C)n(-c5cccc(C(=O)N(C)CCN(C)C)c5)c4C)nc23)C1")
"rule met"
>>> qualitative_label("CCNS(=O)(=O)c1cccc(-n2c(C)cc(-c3nc4ncc(Br)c(N[C@H]5CCN(S(=O)(=O)CC)C5)c4[nH]3)c2C)c1")
"rule met"
>>> qualitative_label("CCS(=O)(=O)N1CC[C@H](Nc2c(Br)cnc3nc(-c4cc(C)n(-c5cccc(NC(=O)CN6CCN(C)CC6)c5)c4C)[nH]c23)C1")
"rule not met"
>>> qualitative_label("CCS(=O)(=O)N1CC[C@H](Nc2c(Br)cnc3nc(-c4cc(C)n(-c5cccc(C(N)=O)c5)c4C)[nH]c23)C1")
"rule met"
>>> qualitative_label("CCS(=O)(=O)N1CC[C@H](Nc2c(Br)cnc3[nH]c(-c4cc(C)n(-c5cccc(C(=O)NCCN6CCN(C)CC6)c5)c4C)nc23)C1")
"rule met"
>>> qualitative_label("CCS(=O)(=O)N1CC[C@H](Nc2c(Br)cnc3nc(-c4cc(C)n(-c5ccc(OCCOC)cc5)c4C)[nH]c23)C1")
"rule met"
